The reported measurements were obtained from PubChem BioAssay (NCI).

# System: OVCAR-8 ovarian
# assayName: NCI-60 one-dose screen, 48 h (100 = growth as untreated, 0 = no growth, -100 = all killed)
# protocolConditions: 10 µM unless noted
The panel holds about 83,000 compounds, 20% with a hit somewhere; the sample as a whole holds those more often.

compound: COC(=O)c1cc(C(=O)C(F)(F)F)n2c3ccccc3c3ccccc3c12
measuredOn: OVCAR-8 ovarian
growth (%): 42.7
--
compound: O=C(Nc1ccc(-c2ccc3c(c2)NC(=O)/C3=C\c2ccc[nH]2)cc1)Nc1ccc(Cl)c(C(F)(F)F)c1
measuredOn: OVCAR-8 ovarian
growth (%): 50.5
--
compound: COc1ccc2c(c1)C(=O)N(C)C2C1c2c(cc3c(c2OC)OCO3)CCN1C (centres undefined)
measuredOn: OVCAR-8 ovarian
growth (%): 78.1
--
compound: C[C@@H](Nc1c(C#N)cnc2ccc(-c3cnc4[nH]ncc4c3)cc12)c1ccccc1
measuredOn: OVCAR-8 ovarian
growth (%): 24.4
--
compound: O=C1/C(=C/c2cnc(-c3ccccc3)s2)SC(=S)N1Cc1ccc2c(c1)OCO2
measuredOn: OVCAR-8 ovarian
growth (%): 67.6
--
compound: COc1cc2cc(C(=O)N3C[C@@H](CCl)c4c3cc(OC(=O)N(CCC(=O)N3CCN(C)CC3)[C@H]3CCSSC3)c3ccccc43)[nH]c2c(OC)c1OC
measuredOn: OVCAR-8 ovarian
growth (%): -49.8
--
compound: FC(F)(F)c1cc2c(Cl)ncnc2n1CCN1CCOCC1
measuredOn: OVCAR-8 ovarian
growth (%): 64.7
--
compound: CN(C)c1nc(NCCNS(=O)(=O)c2ccc(C(=O)/C=C/c3ccc(F)cc3)cc2)nc(N2CCOCC2)n1
measuredOn: OVCAR-8 ovarian
growth (%): 42.3
--
compound: CN(C)c1nc(NCCNS(=O)(=O)c2ccc(C3=Nc4c(N)nc(N)nc4NC(c4ccc(Cl)cc4)C3)cc2)nc(N2CCOCC2)n1 (centres undefined)
measuredOn: OVCAR-8 ovarian
growth (%): 64.3
--
compound: Cc1oc(-c2ccccc2)nc1CN[C@@H]1C[C@@H]2C[C@H]([C@H]1C)C2(C)C
measuredOn: OVCAR-8 ovarian
growth (%): 82.6
--
compound: O=C(CSc1nc2sc3c(c2c(=O)n1-c1ccc(Cl)cc1)CCCC3)NNC(=O)c1ccc(Br)cc1
measuredOn: OVCAR-8 ovarian
growth (%): 34.3
--
compound: CN1C(=O)C(O)(CC(=O)c2cc3ccccc3oc2=O)c2ccccc21 (centres undefined)
measuredOn: OVCAR-8 ovarian
growth (%): 107
--
compound: Cc1ccc(C(=O)Nc2ccc(-n3ccnc3)c(C(F)(F)F)c2)cc1C#Cc1cnc2cccnn12
measuredOn: OVCAR-8 ovarian
growth (%): 18.6
--
compound: Cc1ccc(C2CC(c3ccc(NC(=O)Nc4ccccc4)cc3)=NN2c2ccc(S(C)(=O)=O)cc2)cc1 (centres undefined)
measuredOn: OVCAR-8 ovarian
growth (%): 7.91
--
compound: N#CC1=C(c2cccs2)Nc2c(c(-c3ccccc3)nn2-c2ccccc2)C12C(=O)Nc1ccccc12 (centres undefined)
measuredOn: OVCAR-8 ovarian
growth (%): 24.2
--
compound: O=C(CSc1nc2ccccc2c(=O)[nH]1)Nc1ccccc1C(=O)O
measuredOn: OVCAR-8 ovarian
growth (%): 109
--
compound: Clc1ccccc1Nc1nnc(-c2c[nH]c3ccccc23)o1
measuredOn: OVCAR-8 ovarian
growth (%): 13.4
--
compound: Cc1ccc2c(c1)/C(=C/C(=O)c1cc3ccccc3oc1=O)C(=O)N2
measuredOn: OVCAR-8 ovarian
growth (%): 54.9
--
compound: C=CC(=O)Nc1ccc(C(=O)/C=C/c2ccc(N(C)C)cc2)c(O)c1
measuredOn: OVCAR-8 ovarian
growth (%): -8.4
